# Assay Summary: in vitro
# Reported Conditions: mouse
Value Kind: viability at 48 h
Numeric answer plus unit only.

CCCCCCCCCCn1cc[n+](CCCCCCCCCC)c1C.[Cl-] [(C10)2MImCl, 1,3-Didecyl-2-methylimidazolium chloride] :: 94%

// viability at 48 h value for "CCCCCCCCCCn1cc[n+](C)c1.CS(=O)(=O)[O-]" : 89%

###

# Assay Summary: in vitro
# Reported Conditions: mouse
Value Kind: CC50 (µM)
Unit µM implied. Number only.

// CC50 value for "CCCCCCCCCCCCCCCCn1c(C)c(C)[n+](C)c1C.[Cl-]" : 17.8

###

SI: selectivity index, ratio of CC50 for macrophage/IC50 for L. amazonensis promastigotes listing for selected molecules.
# Test system: Macrophages RAW 264.7 cell line
No unit in the answer, only the number.

CCCCCCCCCCn1cc[n+](C)c1.CS(=O)(=O)[O-] [C10MImMeS] :: 6.6

Known value: Macrophages RAW 264.7 cell line SI: selectivity index, ratio of CC50 for macrophage/IC50 for L. amazonensis promastigotes of the molecule CCCCCCCCCCCCCCCCn1cc[n+](C)c1.[Br-] [C16MImBr, 1-hexadecyl-3-methylimidazolium bromide] equals 2.7

Known value: Macrophages RAW 264.7 cell line SI: selectivity index, ratio of CC50 for macrophage/IC50 for L. amazonensis promastigotes of the molecule CCCCCCCCCCCCCCCCn1cc[n+](C)c1 [C16MImPF6] equals 2.4

Known value: Macrophages RAW 264.7 cell line SI: selectivity index, ratio of CC50 for macrophage/IC50 for L. amazonensis promastigotes of the molecule CCCCCCCCCCCCCCCCn1ccnc1 [C16Im, 1-hexadecylimidazole] equals 3.8

Known value: Macrophages RAW 264.7 cell line SI: selectivity index, ratio of CC50 for macrophage/IC50 for L. amazonensis promastigotes of the molecule CCCCCCCCCCCCCCCCn1cc[n+](C)c1C.[Cl-] [C16M2ImCl] equals 4.8

Known value: Macrophages RAW 264.7 cell line SI: selectivity index, ratio of CC50 for macrophage/IC50 for L. amazonensis promastigotes of the molecule CCCCCCCCCCn1cc[n+](CCCCCCCCCC)c1C.[Cl-] [(C10)2MImCl, 1,3-Didecyl-2-methylimidazolium chloride] equals 8.6

Known value: Macrophages RAW 264.7 cell line SI: selectivity index, ratio of CC50 for macrophage/IC50 for L. amazonensis promastigotes of the molecule CCCCCCCCCCCCCCCCn1c(C)c(C)[n+](C)c1C.[Cl-] [C16M4ImCl] equals 10

###

# Tested on: L. infantum chagasi promastigotes
# Assay Summary: microbe, parasite or virus in culture
# Reported Conditions: Leishmania infantum, 48 h, read-out: IC50 (CI 95%): concentration of compound that causes 50% of L. infantum chagasi promastigotes mortality, promastigotes, 48 h, MTT
Value Kind: pIC50
Value format note: pIC50 is -log10 of concentration (mol/L); just state the number.

Previously resolved entries follow.
CCCCCCCCCCn1cc[n+](C)c1 [C10MImCl, 1-decyl-3-methylimidazolium chloride] :: 3.94
CCCCCCCCCCn1cc[n+](CCCCCCCCCC)c1C.[Cl-] [(C10)2MImCl, 1,3-Didecyl-2-methylimidazolium chloride] :: 4.78
CCCCCCCCCCCCCCCCn1ccnc1 [C16Im, 1-hexadecylimidazole] :: 5.08

Known value: L. infantum chagasi promastigotes pIC50 of the compound "CCCCCCCCCCCCCCCCn1cc[n+](C)c1C.[Cl-]" equals 4.81

###

# Assay Summary: in vitro
# Reported Conditions: mouse, CC50 (CI 95%): concentration of compound that causes 50% of macrophage mortality
Value Kind: CC50 at 48 h

CCCCCCCCCCCCCCCCn1cc[n+](C)c1 [C16MImPF6] :: 16.8 µM

Could you now consider this next molecule?
// CC50 at 48 h value for CCCCCCCCCCCCCCCCn1ccnc1 [C16Im, 1-hexadecylimidazole] : 54.9 µM

###

# Assay Summary: in vitro
# Reported Conditions: mouse
Value Kind: viability (%)
Unit % implied. Number only.

// viability value for "CCCCCCCCCCCCCCCCn1c(C)c(C)[n+](C)c1C.[Cl-]" : 90

###

# Assay Summary: in vitro
# Reported Conditions: mouse, CC50 (CI 95%): concentration of compound that causes 50% of macrophage mortality, RAW cells, 48 h, MTT
Value Kind: CC50 at 48 h (µM)
Unit µM implied. Number only.

Previously resolved entries follow.
CCCCCCCCCCCCCCCCn1cc[n+](C)c1.[Br-] [C16MImBr, 1-hexadecyl-3-methylimidazolium bromide] :: 16
CCCCCCCCCCn1cc[n+](C)c1.CS(=O)(=O)[O-] [C10MImMeS] :: 76.9
CCCCCCCCCCn1cc[n+](CCCCCCCCCC)c1C.[Cl-] [(C10)2MImCl, 1,3-Didecyl-2-methylimidazolium chloride] :: 16.4

Could you now consider this next molecule?
// CC50 at 48 h value for CCCCCCCCCCCCCCCCn1cc[n+](C)c1C.[Cl-] [C16M2ImCl] : 19.8

###

# Test system: human erythrocytes
# Reported Conditions: human red blood cells, 60 min, 37°C
RBC50 (CI 95%): concentration of compound that causes 50% of red blood cell hemolysis listing for selected compounds.

CCCCCCCCCCCCCCCCn1c(C)c(C)[n+](C)c1C.[Cl-] :: 15.6 (14.5-16.8) µM
CCCCCCCCCCCCCCCCn1cc[n+](C)c1.[Br-] [C16MImBr, 1-hexadecyl-3-methylimidazolium bromide] :: 22.8 (21.7-24) µM
CCCCCCCCCCn1cc[n+](C)c1.CS(=O)(=O)[O-] :: > 100 µM

Could you now consider this next compound?
// RBC50 (CI 95%): concentration of compound that causes 50% of red blood cell hemolysis value for CCCCCCCCCCn1cc[n+](CCCCCCCCCC)c1C.[Cl-] [(C10)2MImCl, 1,3-Didecyl-2-methylimidazolium chloride] : 20.9 (20-21.9) µM
